Target Or Test System: UniProt O00767
Test Details: Yeast growth assay, strain expressing human SCD1 as the sole desaturase (reduced growth as surrogate for SCD inhibition)
Assay Conditions: yeast with OLE1 deleted expressing human SCD1 from a plasmid; growth read as OD600 after 40 h at 30° C.; top drug concentration 33.3 μM
Observation Type: IC50

[[record]]
compound = "CN1CCC2(CCN(C(=O)c3cc(-c4ccccc4)on3)C2)C1 (stereo not drawn)"
value = "> 45 µM"

[[record]]
compound = "O=C(c1cc(-c2ccc3c(c2)OCO3)on1)N1CCCC1c1cccc(Br)c1 (stereo not drawn)"
value = "> 45 µM"

[[record]]
compound = "COc1ccc(C2CCCN2C(=O)c2cc(-c3ccc(OC)c(F)c3)on2)cc1 (stereo not drawn)"
value = "43.5 µM"

[[record]]
compound = "N#Cc1cc(C(=O)Nc2cnn(Cc3cccc(F)c3)c2)no1"
value = "> 45 µM"

[[record]]
compound = "O=C(c1cc(-c2ccc3c(c2)OCO3)on1)N1CCC1c1ccccc1Cl (stereo not drawn)"
value = "> 45 µM"

[[record]]
compound = "O=C(Nc1cnn(Cc2cnccc2C(F)(F)F)c1)c1cc(-c2ccccn2)on1"
value = "> 45 µM"

[[record]]
compound = "N#Cc1ccc(CN(C(=O)c2cc(-c3ccccc3)on2)c2cnn(Cc3ccc(C#N)cc3)c2)cc1"
value = "> 45 µM"

[[record]]
compound = "O=C(c1cc(-c2ccccc2)on1)N1CC2(CC(c3ccccc3)C2)C1"
value = "> 45 µM"

[[record]]
compound = "O=C(Nc1cnn(Cc2cccc(F)c2)c1)c1cc(-c2ncccn2)on1"
value = "22.6 µM"


* * *

Target Or Test System: human SCD5 (Homo sapiens (Human))
Sequence (Q86SK9 whole entry): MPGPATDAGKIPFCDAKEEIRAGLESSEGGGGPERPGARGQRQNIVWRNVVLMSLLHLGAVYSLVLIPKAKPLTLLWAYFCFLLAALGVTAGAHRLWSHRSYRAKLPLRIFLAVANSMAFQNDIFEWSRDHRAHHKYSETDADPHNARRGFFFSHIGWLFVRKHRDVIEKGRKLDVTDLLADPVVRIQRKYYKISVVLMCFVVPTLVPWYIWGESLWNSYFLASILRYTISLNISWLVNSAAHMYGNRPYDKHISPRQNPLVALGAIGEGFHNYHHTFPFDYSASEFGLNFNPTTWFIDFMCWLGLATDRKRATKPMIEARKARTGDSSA
Test Details: Yeast growth assay, strain expressing human SCD5 as the sole desaturase (reduced growth as surrogate for SCD inhibition)
Assay Conditions: yeast with OLE1 deleted expressing human SCD5 from a plasmid; growth read as OD600 after 40 h at 30° C.; top drug concentration 33.3 μM
Observation Type: IC50

[[record]]
compound = "N#Cc1ccccc1-c1cc(C(=O)Nc2cnn(Cc3ccccc3)c2)no1"
target_or_test_system = "human SCD5 (Homo sapiens (Human))"
observation_type = "IC50"
value = "> 45 µM"

[[record]]
compound = "O=C(Nc1cnn(Cc2cccc(F)c2)c1)c1cc(-c2ccncc2)on1"
target_or_test_system = "human SCD5 (Homo sapiens (Human))"
observation_type = "IC50"
value = "2.69 µM"

[[record]]
compound = "O=C(Nc1cnn(Cc2cccc(F)c2)c1)c1cc(C2(O)CCC2)on1"
target_or_test_system = "human SCD5 (Homo sapiens (Human))"
observation_type = "IC50"
value = "20 µM"

[[record]]
compound = "Cc1nn(Cc2ccc(Cl)c(Cl)c2)cc1NC(=O)c1cc(-c2ccco2)on1"
target_or_test_system = "human SCD5 (Homo sapiens (Human))"
observation_type = "IC50"
value = "4.87 µM"

[[record]]
compound = "O=C(c1cc(-c2ccccn2)on1)N1CCC(c2cccc(F)c2)C1 (centres unmarked)"
target_or_test_system = "human SCD5 (Homo sapiens (Human))"
observation_type = "IC50"
value = "9 µM"


* * *

Target Or Test System: human SCD1 (Homo sapiens (Human))
Sequence (O00767 whole entry): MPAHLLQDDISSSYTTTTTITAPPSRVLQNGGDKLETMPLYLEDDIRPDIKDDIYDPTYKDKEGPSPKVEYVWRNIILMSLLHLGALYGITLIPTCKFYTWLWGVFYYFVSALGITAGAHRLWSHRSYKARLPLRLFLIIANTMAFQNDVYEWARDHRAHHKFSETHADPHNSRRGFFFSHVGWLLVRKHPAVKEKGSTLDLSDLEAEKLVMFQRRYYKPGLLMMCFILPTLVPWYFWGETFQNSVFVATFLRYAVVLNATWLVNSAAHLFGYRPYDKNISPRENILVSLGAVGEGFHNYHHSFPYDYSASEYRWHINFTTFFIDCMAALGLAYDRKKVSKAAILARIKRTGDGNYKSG
Test Details: Yeast growth assay, strain expressing human SCD1 as the sole desaturase (reduced growth as surrogate for SCD inhibition)
Assay Conditions: yeast with OLE1 deleted expressing human SCD1 from a plasmid; growth read as OD600 after 40 h at 30° C.; top drug concentration 33.3 μM
Listed below: IC50 values for each entry.
Observation Type: IC50

[[record]]
compound = "O=C(c1cc(-c2cccnc2)on1)N1CC(c2ccccc2)C1"
value = "15.5 µM"

[[record]]
compound = "O=C(c1cc(-c2ccccc2)on1)N1CC2(C=C(c3ccccc3)C2)C1"
value = "> 45 µM"

[[record]]
compound = "O=C(c1cc(-c2ccc3c(c2)OCO3)on1)N1CCC[C@@H]1c1ccccc1"
value = "> 45 µM"

[[record]]
compound = "O=C(c1cc(-c2ccccc2)on1)N1CCCC1Cc1ccccc1 (stereo not drawn)"
value = "> 45 µM"

[[record]]
compound = "NC(=O)c1cc(C(=O)N2CCC(c3ccccc3)C2)no1 (stereo not drawn)"
value = "7.61 µM"

[[record]]
compound = "COc1ccc(-c2cc(C(=O)N3CC(Cc4ccccc4)C3)no2)nn1"
value = "> 45 µM"

[[record]]
compound = "Cc1nn(C)c2cc(-c3cc(C(=O)N4CCCC4c4ccnnc4)no3)ccc12 (stereo not drawn)"
value = "> 45 µM"

[[record]]
compound = "CC(C)(O)c1cc(C(=O)Nc2cnn(Cc3ccccc3)c2)on1"
value = "> 45 µM"

[[record]]
compound = "O=C(c1cc(-c2ccc3c(c2)OCO3)on1)N1CCC1c1ccc(F)cc1 (stereo not drawn)"
value = "> 45 µM"

